system: α4β1 (VLA-4) as used in the competition ELISAs (UniProt P13612 34-970; P05556 21-728)
assay protocol: competition ELISA; integrin preincubated with test mAb, then murine HP1/2 as competing reagent
quantity: IC50 (nM)
// note: answer is a bare numeric in nM

Exercise: Which value of IC50 has been reported for H1L1 (antibody, V domains shown, also called Design H1 / Design L1) VH: EVQLVQSGAEVKKPGATVKISCKASGFNIKDTYMHWVQQAPGKGLEWMGRIDPASGDTKYDPKFQVRVTITADTSTDTAYMELSSLRSEDTAVYYCADGMWVSTGYALDFWGQGTLVTVSS VL: SIVMTQSPDSLAVSLGERATINCKASQSVTNDVAWYQQKPGQPPKLLIYYASNRYTGVPDRFSGSGSGTDFTLTISSLQAEDVAVYFCQQDYSSPYTFGQGTKVEIK in the records?
Key: 1.67
